Experiment: chemical genetic growth profiling, strain panel (AID 1159580);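 also: tested at 20 µM; growth read once vehicle control cultures reached saturation at 30 °C; 1 = growth at the plate median or of vehicle wells; lower values mean less growth of the strain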
Conditions: S. cerevisiae deletion strains, growth OD, locus YLL026W, active compounds read low
In all, about 5,500 compounds went through this assay and about 2,000 (36%) were called active. About 18% were inconclusive and are not listed. The list shows a part of the results.
Let's look at some molecules and their measured normalized growth.
parameter: normalized growth

>>> observed_result("Cc1cc(C(C)(C)C)c(O)c(C)c1CC1=NCCN1")
1.02
>>> observed_result("O=C(O)c1cc(=O)c2c(Cl)cc(Cl)cc2[nH]1")
1.01
>>> observed_result("CCC1(CC)C(=O)C=CNC1=O")
0.99
>>> observed_result("NC[C@H]1O[C@H](O[C@H]2C(O[C@@H]3O[C@H](CO)[C@@H](O)[C@H]3O)[C@@H](O)[C@H](N)C[C@@H]2N)[C@H](N)[C@@H](O)[C@@H]1O (stereo not given in full)")
0.984
>>> observed_result("COc1cc2c(cc1OC)[C@@]13CCN4CC5=CCOC6CC(=O)N2C1[C@H]6[C@H]5C[C@H]43 (stereo not given in full)")
0.99
>>> observed_result("Cc1ccc(N(CC2=NCCN2)c2cccc(O)c2)cc1")
1.02
>>> observed_result("NC[C@H]1O[C@H](O[C@H]2[C@H](O)[C@@H](O[C@H]3O[C@H](CO)[C@@H](O)[C@H](N)[C@H]3O)[C@H](N)C[C@@H]2N)[C@H](N)C[C@@H]1O")
1.01
>>> observed_result("COc1c2occc2c(OC)c2c(=O)cc(C)oc12")
0.999
>>> observed_result("CC[C@@H](CO)NC(=O)[C@@H]1C=C2c3cccc4[nH]cc(c34)C[C@H]2N(C)C1")
0.986
>>> observed_result("O=C(NC1CCCCC1)NC1CCCCC1")
0.981
